Catalogue of koff values
# system tested: T1, macaca fascicularis (mf) PRLR.mmh (soluble monomeric monkey PRLR) (Macaca fascicularis)
# T1 construct: called soluble monomeric PRLR protein
# T1 chain: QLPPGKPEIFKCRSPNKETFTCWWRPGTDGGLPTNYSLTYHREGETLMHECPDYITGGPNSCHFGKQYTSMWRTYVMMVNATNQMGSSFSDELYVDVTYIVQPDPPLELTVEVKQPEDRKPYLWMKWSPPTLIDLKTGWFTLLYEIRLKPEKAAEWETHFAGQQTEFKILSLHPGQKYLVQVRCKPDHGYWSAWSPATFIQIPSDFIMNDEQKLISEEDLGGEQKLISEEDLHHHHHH
# procedure text: SPR Biacore, 25 C, mAb capture

binder	result
H1H6959N2 (antibody, human IgG1, V domains shown, Tested with human IgG1 Fc (H1H); also called H2M6959N2) VH: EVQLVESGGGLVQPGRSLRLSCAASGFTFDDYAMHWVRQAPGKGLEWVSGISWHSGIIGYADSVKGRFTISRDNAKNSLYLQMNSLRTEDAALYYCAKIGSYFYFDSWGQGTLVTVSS VL: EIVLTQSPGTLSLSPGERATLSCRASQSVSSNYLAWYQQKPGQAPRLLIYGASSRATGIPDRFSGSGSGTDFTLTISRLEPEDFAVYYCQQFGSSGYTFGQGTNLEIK	0.0167 s⁻¹
H1H6958N2 (antibody, human IgG1, V domains shown, Tested with human IgG1 Fc (H1H); also called H2M6958N2) VH: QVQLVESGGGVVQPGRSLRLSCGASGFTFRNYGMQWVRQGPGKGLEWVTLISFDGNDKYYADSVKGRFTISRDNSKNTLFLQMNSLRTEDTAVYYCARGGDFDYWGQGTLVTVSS VL: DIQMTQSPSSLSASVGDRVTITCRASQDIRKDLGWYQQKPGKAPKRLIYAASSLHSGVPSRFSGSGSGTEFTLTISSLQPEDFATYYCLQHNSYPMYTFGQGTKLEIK	0.00028 s⁻¹
H1H6765P (antibody, human IgG1, V domains shown, Human IgG1 Fc (H1H)) VH: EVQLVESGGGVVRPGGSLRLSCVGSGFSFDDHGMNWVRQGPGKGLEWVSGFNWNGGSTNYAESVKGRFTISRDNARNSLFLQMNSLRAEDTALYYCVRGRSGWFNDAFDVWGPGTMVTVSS VL: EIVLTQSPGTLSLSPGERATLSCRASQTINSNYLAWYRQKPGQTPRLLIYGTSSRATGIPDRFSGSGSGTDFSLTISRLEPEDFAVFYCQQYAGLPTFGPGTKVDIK	0.000134 s⁻¹

// next item, koff requested
Ask: Suppose we examine the binder H1H6781P (antibody, human IgG1, V domains shown, Human IgG1 Fc (H1H)) VH: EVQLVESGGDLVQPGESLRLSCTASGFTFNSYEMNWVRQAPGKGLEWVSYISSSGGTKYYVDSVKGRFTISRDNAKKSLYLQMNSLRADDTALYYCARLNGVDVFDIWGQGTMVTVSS VL: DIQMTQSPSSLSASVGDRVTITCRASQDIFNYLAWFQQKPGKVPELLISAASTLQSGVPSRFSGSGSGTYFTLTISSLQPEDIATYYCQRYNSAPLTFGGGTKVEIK ; what koff value has been reported?
Reply: 0.000141 s⁻¹

These data points were gathered from patent US20180185504A1.
